target: His-tagged CRBN-DDB1 complex (Homo sapiens (Human)); assay: Time-Resolved Fluorescence Resonance Energy Transfer (TR-FRET) assay; assay type: binding; conditions: read-out: CRBN HTRF IC50
Sequence (Q96SW2 whole entry): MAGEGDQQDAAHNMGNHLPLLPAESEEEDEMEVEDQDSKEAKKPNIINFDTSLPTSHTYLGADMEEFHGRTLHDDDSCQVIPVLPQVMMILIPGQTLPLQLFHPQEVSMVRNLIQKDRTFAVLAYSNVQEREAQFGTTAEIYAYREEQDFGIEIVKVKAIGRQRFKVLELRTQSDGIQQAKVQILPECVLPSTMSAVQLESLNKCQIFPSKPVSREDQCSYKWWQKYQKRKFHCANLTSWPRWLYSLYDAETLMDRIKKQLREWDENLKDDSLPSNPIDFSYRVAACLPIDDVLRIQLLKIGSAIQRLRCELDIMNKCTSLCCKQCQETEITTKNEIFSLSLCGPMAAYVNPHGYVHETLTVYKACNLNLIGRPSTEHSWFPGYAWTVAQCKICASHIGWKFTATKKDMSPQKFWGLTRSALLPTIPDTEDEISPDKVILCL
Sequence (Q16531 whole entry partner): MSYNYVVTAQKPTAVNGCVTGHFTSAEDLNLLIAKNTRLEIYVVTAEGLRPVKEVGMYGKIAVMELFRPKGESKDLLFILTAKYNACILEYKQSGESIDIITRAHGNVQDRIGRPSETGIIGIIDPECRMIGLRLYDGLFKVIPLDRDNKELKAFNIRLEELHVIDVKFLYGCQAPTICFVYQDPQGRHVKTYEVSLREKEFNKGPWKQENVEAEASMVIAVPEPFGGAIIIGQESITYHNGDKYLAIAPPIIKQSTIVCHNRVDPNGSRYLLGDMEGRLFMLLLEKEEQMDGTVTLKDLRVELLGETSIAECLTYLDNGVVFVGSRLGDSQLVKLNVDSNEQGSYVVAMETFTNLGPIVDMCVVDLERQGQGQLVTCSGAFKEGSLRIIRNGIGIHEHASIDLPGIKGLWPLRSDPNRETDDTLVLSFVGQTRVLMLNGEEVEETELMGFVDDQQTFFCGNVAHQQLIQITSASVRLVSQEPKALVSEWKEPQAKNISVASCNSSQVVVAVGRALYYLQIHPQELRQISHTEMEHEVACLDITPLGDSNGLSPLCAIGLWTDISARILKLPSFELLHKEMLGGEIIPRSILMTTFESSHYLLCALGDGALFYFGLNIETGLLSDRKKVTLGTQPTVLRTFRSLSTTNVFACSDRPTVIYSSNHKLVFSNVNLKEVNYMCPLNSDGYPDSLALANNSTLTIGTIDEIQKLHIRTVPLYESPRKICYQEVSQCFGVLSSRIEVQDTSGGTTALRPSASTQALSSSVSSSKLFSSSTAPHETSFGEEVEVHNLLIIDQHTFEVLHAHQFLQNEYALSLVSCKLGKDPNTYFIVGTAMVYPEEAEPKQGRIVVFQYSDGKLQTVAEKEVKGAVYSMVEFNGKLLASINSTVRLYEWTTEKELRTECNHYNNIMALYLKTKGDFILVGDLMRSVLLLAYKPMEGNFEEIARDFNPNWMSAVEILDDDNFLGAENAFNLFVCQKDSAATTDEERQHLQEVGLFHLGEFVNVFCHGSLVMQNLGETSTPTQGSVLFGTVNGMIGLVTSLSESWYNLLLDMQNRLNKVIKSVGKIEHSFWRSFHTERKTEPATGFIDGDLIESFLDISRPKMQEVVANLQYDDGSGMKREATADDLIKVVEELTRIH
MEASURED PARAMETER: IC50

[[record]]
molecule = "O=C1CCC(Sc2ccc(C(F)(F)F)cn2)C(=O)N1 (centres unmarked) [Compound I-98]"
experimental_system = "His-tagged CRBN-DDB1 complex (Homo sapiens (Human))"
result = "10 to 100 µM"

[[record]]
molecule = "NC(=O)c1cccnc1SC1CCC(=O)NC1=O (centres unmarked) [Compound I-140]"
experimental_system = "His-tagged CRBN-DDB1 complex (Homo sapiens (Human))"
result = "1 to 10 µM"

[[record]]
molecule = "O=C1CCC(Sc2ccc(C(=O)O)cc2)C(=O)N1 (centres unmarked) [Compound I-10]"
experimental_system = "His-tagged CRBN-DDB1 complex (Homo sapiens (Human))"
result = "10 to 100 µM"

[[record]]
molecule = "O=C1CCC(Sc2cccc(C(=O)O)c2)C(=O)N1 (centres unmarked) [Compound I-123]"
experimental_system = "His-tagged CRBN-DDB1 complex (Homo sapiens (Human))"
result = "10 to 100 µM"

[[record]]
molecule = "Cc1ccc(SC2CCC(=O)NC2=O)cc1 (centres unmarked) [Compound I-66]"
experimental_system = "His-tagged CRBN-DDB1 complex (Homo sapiens (Human))"
result = "10 to 100 µM"

[[record]]
molecule = "O=C1CCC(Sc2nc3ccc(Cl)cc3[nH]2)C(=O)N1 (centres unmarked) [Compound I-94]"
experimental_system = "His-tagged CRBN-DDB1 complex (Homo sapiens (Human))"
result = "1 to 10 µM"

[[record]]
molecule = "O=C1CCC(Sc2ccc(F)cc2)C(=O)N1 (centres unmarked) [Compound I-7]"
experimental_system = "His-tagged CRBN-DDB1 complex (Homo sapiens (Human))"
result = "10 to 100 µM"

[[record]]
molecule = "O=C1CCC(Sc2cccs2)C(=O)N1 (centres unmarked) [Compound I-72]"
experimental_system = "His-tagged CRBN-DDB1 complex (Homo sapiens (Human))"
result = "10 to 100 µM"


Values from patent US11512080B2
